Data credit: ChEMBL document CHEMBL3137667

Quick reference for Hepatotoxicity (moderate) among some compounds
- method description: Highest frequency of moderate liver toxicity observed during clinical trials, expressed as a percentage. [column '% BIOL' in source]
- condition: human
API: value field is a number in %; no unit string.

// below: answered compounds
compound: CCC(C)(C)NCC(O)COc1ccccc1C(=O)CCc1ccccc1 (centres undefined) [DIPRAFENONE]
Hepatotoxicity (moderate) [%]: 3.7

compound: CC[C@H](C)[C@H]1NC(=O)[C@@H](NC(=O)[C@@H](CC(C)C)N(C)C(=O)[C@@H]2CCCN2C(=O)C(C)O)[C@@H](C)OC(=O)[C@H](Cc2ccc(OC)cc2)N(C)C(=O)[C@@H]2CCCN2C(=O)[C@H](CC(C)C)NC(=O)[C@@H](C)C(=O)[C@H](C(C)C)OC(=O)C[C@@H]1O (some centres undefined) [DIDEMNIN B]
Hepatotoxicity (moderate) [%]: 32

# input Which Hepatotoxicity (moderate) value belongs to CN1C[C@H](CC#N)C[C@@H]2c3cccc4[nH]c(Cl)c(c34)C[C@H]21 [LERGOTRILE] ?
# output 63.2

# input Which Hepatotoxicity (moderate) value belongs to C[C@]12C=CC(=O)C=C1CC[C@@H]1[C@@H]2CC[C@@]2(C)[C@H]1CC[C@]2(C)O (stereo in doubt; form 1) [METHANDROSTENOLONE] ?
# output 0

* * *

- condition: human, serum
parameter measured: Hepatotoxicity (moderate)
Give your answer as a number; write no unit.

// below: answered molecules
molecule: Nc1ccc(C(=O)O)cc1 [AMINOBENZOIC ACID]
parameter measured: Hepatotoxicity (moderate)
result: 1
--
molecule: CSc1ccc(C(=O)c2[nH]c(=O)[nH]c2C)cc1 [ENOXIMONE]
parameter measured: Hepatotoxicity (moderate)
result: 3
--
molecule: CC(=O)/N=c1/sc(S(N)(=O)=O)nn1C [METHAZOLAMIDE]
parameter measured: Hepatotoxicity (moderate)
result: 0
--
molecule: CN1CCN(CCCN2c3ccccc3Sc3ccccc32)CC1 [PERAZINE]
parameter measured: Hepatotoxicity (moderate)
result: 5
--
molecule: C[C@H]1COc2c(C3(N)CC3)c(F)cc3c(=O)c(C(=O)O)cn1c23 [PAZUFLOXACIN]
parameter measured: Hepatotoxicity (moderate)
result: 31
--
molecule: O=C(c1ccccc1)c1ccc2n1CCC2C(=O)O (stereo not drawn) [KETOROLAC]
parameter measured: Hepatotoxicity (moderate)
result: 1

# input Which Hepatotoxicity (moderate) value belongs to `CC(/C=C1\SC(=S)N(CC(=O)O)C1=O)=C\c1ccccc1` ?
# output 2

* * *

- condition: human, serum
parameter measured: Hepatotoxicity (moderate)
Give your answer as a number; write no unit.

// below: answered molecules
molecule: OC(CCN1CCCCC1)(c1ccccc1)C1CCCCC1 (stereo not drawn)
Hepatotoxicity (moderate): 0

molecule: CC(C)(C(=O)O)c1ccc(C(O)CCCN2CCC(C(O)(c3ccccc3)c3ccccc3)CC2)cc1 (stereo not drawn) [FEXOFENADINE]
Hepatotoxicity (moderate): 1

molecule: Cn1cnc([N+](=O)[O-])c1Sc1ncnc2nc[nH]c12
Hepatotoxicity (moderate): 40

molecule: CC[C@H]1OC(=O)[C@H](C)C(=O)[C@H](C)[C@@H](O[C@@H]2O[C@H](C)C[C@H](N(C)C)[C@H]2O)[C@](C)(OC)C[C@@H](C)C(=O)[C@H](C)[C@H]2N(CCCCn3cnc(-c4cccnc4)c3)C(=O)O[C@]12C
Hepatotoxicity (moderate): 4

Field: next molecule
# input Which Hepatotoxicity (moderate) value belongs to `CCOC(=O)[C@H](CCc1ccccc1)N[C@@H](C)C(=O)N1[C@H](C(=O)O)C[C@@H]2CCC[C@@H]21` ?
# output 3
